# Tested on: SNK-6 (IL-2 2.5 ng/mL)
# test_name: drug sensitivity score (DSS) (DSS units); higher = more sensitive; extreme values may be limits of the assay
# condition_notes: 72 h
value_kind: drug sensitivity score
One number for each entry.

// worked examples, drug sensitivity score included
Cc1nc(N)sc1-c1ccnc(Nc2ccc(N3CCOCC3)cc2)n1 [CYC-116] (max concentration tested 10000 nM) : 16
COc1cc2c(Oc3ccc(NC(=O)C4(C(=O)Nc5ccc(F)cc5)CC4)cc3F)ccnc2cc1OCCCN1CCOCC1 [Foretinib] (max concentration tested 1000 nM) : 2.27
COc1cc(Nc2c(C#N)cnc3cc(OCCCN4CCN(C)CC4)c(OC)cc23)c(Cl)cc1Cl [Bosutinib] (max concentration tested 10000 nM) : 4.57
CC[C@@]1(O)C(=O)OCc2c1cc1n(c2=O)Cc2cc3c(CN(C)C)c(O)ccc3nc2-1 [Topotecan] (max concentration tested 10000 nM) : 29
O=[N+]([O-])c1ccc2c(c1)S(=O)(=O)C=C2 [Stattic] (max concentration tested 50000 nM) : 16.6

Query C#Cc1cccc(Nc2ncnc3cc(OCCOC)c(OCCOC)cc23)c1 [Erlotinib] (max concentration tested 10000 nM) yields drug sensitivity score of 5.2

====

# Tested on: KAI3 (IL-2 2.5 ng/mL);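 also: normalised to DMSO-only wells as negative and benzethonium chloride as positive control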
# test_name: percent inhibition of viability; higher = more inhibition
# condition_notes: 72 h; 1 nM
value_kind: percent inhibition of viability (%)
Answers are plain numbers, in %.

Nc1ncnc2c1c(COc1cccc(Cl)c1)nn2C1CCOCC1 (max concentration tested 10000 nM) : -4.22
CNNCc1ccc(C(=O)NC(C)C)cc1 [Procarbazine] (max concentration tested 10000 nM) : -11.1
CC(=O)[C@]1(O)Cc2c(O)c3c(c(O)c2[C@@H](O[C@H]2C[C@H](N)[C@H](O)[C@H](C)O2)C1)C(=O)c1ccccc1C3=O [Idarubicin] (max concentration tested 1000 nM) : 20.2
CC(O)(CS(=O)(=O)c1ccc(F)cc1)C(=O)Nc1ccc(C#N)c(C(F)(F)F)c1 (stereo unspecified) [Bicalutamide] (max concentration tested 10000 nM) : 14.6
Nc1ccn([C@@H]2O[C@H](CO)[C@@H](O)C2(F)F)c(=O)n1 [Gemcitabine] (max concentration tested 1000 nM) : 3.34

Next item in the queue.
Query CON(C)C(=O)N1N=C(c2cc(F)ccc2F)S[C@@]1(CCCN)c1ccccc1 [ARRY-520] (max concentration tested 1000 nM) yields percent inhibition of viability of -8.08

====

# System: normal primary NK cells, pool 2 (3 donors) (IL-2 2.5 ng/mL)
# test_name: drug sensitivity score (DSS) (DSS units); higher = more sensitive; extreme values may be limits of the assay
# condition_notes: 72 h
value_kind: drug sensitivity score
Answers are plain numbers.

// worked examples, drug sensitivity score included
CCCCC/C=C/C=C1/C(=O)C=C[C@@H]1C/C=C\CCCC(=O)O [15D-PGJ2] (max concentration tested 3000 nM) : 0.45
CC(C)C(=O)Nc1ccc([N+](=O)[O-])c(C(F)(F)F)c1 [Flutamide] (max concentration tested 10000 nM) : 0
Cc1c(NC(=O)OC[C@@H]2COCCN2)cn2ncnc(Nc3ccc4c(cnn4Cc4cccc(F)c4)c3)c12 (max concentration tested 10000 nM) : 3.16
S=C(NCc1ccc2c(c1)OCO2)N1CCN(c2ncnc3c2oc2ccccc23)CC1 [Amuvatinib] (max concentration tested 10000 nM) : 5.67
CS(=O)(=O)N1CCc2c(-c3cnc(N)nc3)nc(N3CCOCC3)nc21 (max concentration tested 10000 nM) : 4.2
O=C(O)c1ccc2c(c1)nc(Nc1cccc(Cl)c1)c1ccncc12 [Silmitasertib] (max concentration tested 10000 nM) : 5.68
O[C@H]1CC[C@H](Nc2ncc3nc(Nc4c(F)cc(F)cc4F)n([C@H]4CCOC4)c3n2)CC1 [Tanzisertib] (max concentration tested 10000 nM) : 0.02
O=NN(CCCl)C(=O)NC1CCCCC1 [Lomustine] (max concentration tested 10000 nM) : 0

For every item below, please supply its drug sensitivity score.
1. CC(O)(CS(=O)(=O)c1ccc(F)cc1)C(=O)Nc1ccc(C#N)c(C(F)(F)F)c1 (stereo not drawn) [Bicalutamide] (max concentration tested 10000 nM)
2. COc1cc2c(Oc3ccc(NC(=O)C4(C(=O)Nc5ccc(F)cc5)CC4)cc3F)ccnc2cc1OCCCN1CCOCC1 [Foretinib] (max concentration tested 1000 nM)
3. C[C@@H]1COC(Nc2ccc3ncnc(Nc4ccc(OCc5nccs5)c(Cl)c4)c3c2)=N1 [Varlitinib] (max concentration tested 10000 nM)
4. O=[N+]([O-])c1ccc2c(c1)S(=O)(=O)C=C2 [Stattic] (max concentration tested 50000 nM)
5. Cn1cc(CNCC2CCN(c3ncc(C(=O)NO)cn3)CC2)c2ccccc21 [Quisinostat] (max concentration tested 1000 nM)

### Response
1: 0; 2: 0; 3: 0; 4: 17.7; 5: 25.2
